Test system: H1 or H9 human embryonic stem cells
Assay: Activin A bioassay: differentiation of human embryonic stem cells to definitive endoderm, cell number and SOX17 intensity by high content analysis (96-well, four days)
Assay type: cell-based
Conditions: supernatant concentration 1x, assay dilution 1:20; control = R&D Sys Activin A 100 ng/ml on same plate
Lab note: anything with Sox 17 Intensity % of control below 2% is marked label 1; values at 2% or higher are marked label 0.

Sample answers from the record:
>  <molecule>
ACTN75: activin A variant peptide, SEQ ID 76 (protein) GLECDGKVNICCKKQSFGQAKDIGWNDWIIAPSGYHGGGCSGECPSHIAGTSGSSLSFHSTVINHYRMRGHSPWANLKSCCSPTKLRPMSMLYYDDGQNIIKKDIQRMKVEECGCT

>  <label>
label 1

$$$$
>  <molecule>
ACTN32: activin A variant peptide, SEQ ID 33 (protein) GLECDGKVNLCCKKQDFVSFKDIGWNDWIIAPSGYHANRCGGKCPSHIAGTSGSSLSFHSTVINHYRMRGHSPFSNMGSCCIPTKLRPMSMLYYDDGQNIIKKDIQNMIVEECGCS

>  <label>
label 1

$$$$
>  <molecule>
ACTN41: activin A variant peptide, SEQ ID 42 (protein) GLECDGKVNLCCKKQDFVSFKDIGWNDWIIAPSGYHANSCSGLCPSHIAGTSGSSLSFHSTVINHYRMRGHSPFSDRGACCIPTKLRPMSMLYYDDGQNIIKKDIQNMIVEECGCS

>  <label>
label 1

$$$$

### Prompt Record ACTN22: activin A variant peptide, SEQ ID 23 (protein) GLECDGKVNLCCKKQDFVSFKDIGWNDWIIAPSGYHANRCDGLCPSHIAGTSGSSLSFHSTVINHYRMRGHSPFALMGACCIPTKLRPMSMLYYDDGQNIIKKDIQNMIVEECGCS : is its Sox 17 Intensity % of control strictly below 2%?
### Response label 1

### Prompt Record ACTN10: activin A variant peptide, SEQ ID 11 (protein) GLECDGKVNYCCKKQDFVSFKDIGWNDWIIAPSGYHANRCSGLCPSHIAGTSGSSLSFHSTVINHYRMRGHSPFAQMGSCCIPTKLRPMSMLYYDDGQNIIKKDIQNMIVEECGCS : is its Sox 17 Intensity % of control strictly below 2%?
### Response label 0

### Prompt Record ACTN53: activin A variant peptide, SEQ ID 54 (protein) GLECDGKVNICCKKQEFGQAKDIGWNDWIIAPSGYHGGGCSGECPSHIAGTSGSSLSFHSTVINHYRMRGHSPWANLKSCCSPTKLRPMSMLYYDDGQNIIKKDIQGMKVEECGCT : is its Sox 17 Intensity % of control strictly below 2%?
### Response label 0
